Would you mind telling me the reported Activity of each entry?
- Test system: Fusobacterium mortiferum
- protocol details: Antibacterial activity against Fusobacterium mortiferum assessed as resistant isolates by CLSI agar dilution method
- Type: functional
Form entry: value (%) — number only.

Ask | Fill in the blank: the reported Activity of CO[C@@]1(NC(=O)CSCC#N)C(=O)N2C(C(=O)O)=C(CSc3nnnn3C)CS[C@@H]21 is ____.
Reply | 0

Ask | For O=C(N[C@H](CO)[C@H](O)c1ccc([N+](=O)[O-])cc1)C(Cl)Cl , what is its reported Activity?
Reply | 4

Ask | Entry under review: CCN1CCN(C(=O)N[C@@H](C(=O)N[C@@H]2C(=O)N3[C@@H]2SC(C)(C)[C@@H]3C(=O)O)c2ccccc2)C(=O)C1=O . Reported Activity?
Reply | 10

Ask | Record request: Activity value, item Cc1ncc([N+](=O)[O-])n1CCO
Reply | 0

Ask | Need Activity of C[C@@H](O)[C@H]1C(=O)N2C(C(=O)O)=C(S[C@@H]3CN[C@H](CNS(N)(=O)=O)C3)[C@H](C)[C@H]12 , thanks.
Reply | 0

Ask | What measured Activity goes with C[C@@H](O)[C@H]1C(=O)N2C(C(=O)O)=C(S[C@@H]3CN[C@H](C(=O)N(C)C)C3)[C@H](C)[C@H]12 ?
Reply | 8

Ask | Activity lookup needed for C[C@@H](O)[C@H]1C(=O)N2C(C(=O)O)=C(SCCNC=N)C[C@H]12 [IMIPENEM ANHYDROUS] , thanks.
Reply | 4

Ask | Which measured Activity value corresponds to CCC[C@@H]1C[C@@H](C(=O)N[C@@H]([C@H]2O[C@H](SC)[C@H](O)[C@@H](O)[C@H]2O)[C@H](C)Cl)N(C)C1 ?
Reply | 7

Ask | Request the reported Activity associated with CC1(C)S[C@@H]2[C@H](NC(=O)Cc3ccccc3)C(=O)N2[C@H]1C(=O)O
Reply | 11

Ask | Fill in: Activity of C[C@@H](O)[C@H]1C(=O)N2C(C(=O)O)=C(S[C@@H]3CN[C@H](C(=O)Nc4cccc(C(=O)O)c4)C3)[C@H](C)[C@H]12 is ___
Reply | 0

----------
- Tested on: Bacteroides uniformis
- protocol details: Antibacterial activity against beta-lactamase producing Bacteroides uniformis by CLSI agar dilution method
- Format: functional
metric name: MIC90 (µg/mL)
Give the quantity in µg/mL, number only.

Ask | // map Cc1ncc([N+](=O)[O-])n1CCO to recorded MIC90 (system: Bacteroides uniformis)
Reply | 4

Ask | API: value(readout= MIC90, system= Bacteroides uniformis, query= C[C@H]1COc2c(N3CCN(C)CC3)c(F)cc3c(=O)c(C(=O)O)cn1c23.C[C@H]1COc2c(N3CCN(C)CC3)c(F)cc3c(=O)c(C(=O)O)cn1c23.O )
Reply | 8

Ask | // lookup MIC90 | system=Bacteroides uniformis | key= C[C@@H](O)[C@H]1C(=O)N2C(C(=O)O)=C(S[C@@H]3CN[C@H](CNS(N)(=O)=O)C3)[C@H](C)[C@H]12
Reply | 2

Ask | // map CO[C@@]1(NC(=O)CSCC#N)C(=O)N2C(C(=O)O)=C(CSc3nnnn3C)CS[C@@H]21 to recorded MIC90 (system: Bacteroides uniformis)
Reply | 128

----------
- System: Prevotella intermedia
- protocol details: Antibacterial activity against Prevotella intermedia assessed as resistant isolates by CLSI agar dilution method
- Type: functional
metric name: Activity (%)
Kindly provide the numeric value in % only, without the unit symbol.

Ask | // map C[C@@H](O)[C@H]1C(=O)N2C(C(=O)O)=C(S[C@@H]3CN[C@H](C(=O)Nc4cccc(C(=O)O)c4)C3)[C@H](C)[C@H]12 to recorded Activity (system: Prevotella intermedia)
Reply | 0

Ask | Item: CCN1CCN(C(=O)N[C@@H](C(=O)N[C@@H]2C(=O)N3[C@@H]2SC(C)(C)[C@@H]3C(=O)O)c2ccccc2)C(=O)C1=O Test system: Prevotella intermedia Read-out: Activity Value: ?
Reply | 22

Ask | What value of Activity on Prevotella intermedia does O=C(N[C@H](CO)[C@H](O)c1ccc([N+](=O)[O-])cc1)C(Cl)Cl have?
Reply | 0

Ask | Prevotella intermedia / Activity / C[C@@H](O)[C@H]1C(=O)N2C(C(=O)O)=C(SCCNC=N)C[C@H]12 [IMIPENEM ANHYDROUS] : value?
Reply | 6

Ask | State its Activity on Prevotella intermedia: Cc1ncc([N+](=O)[O-])n1CCO
Reply | 0

Ask | Field: Activity (Prevotella intermedia). Entry: C[C@@H](O)[C@H]1C(=O)N2C(C(=O)O)=C(S[C@@H]3CN[C@H](C(=O)N(C)C)C3)[C@H](C)[C@H]12
Reply | 0

Ask | Please state recorded Activity (tested on Prevotella intermedia) of C[C@@H](O)[C@H]1C(=O)N2C(C(=O)O)=C(S[C@@H]3CN[C@H](CNS(N)(=O)=O)C3)[C@H](C)[C@H]12
Reply | 0

----------
- Test system: Clostridium perfringens
- protocol details: microbe, parasite or virus in culture
- Format: functional
Exercise: state measured MIC90 for each of the compounds provided.
Answer in µg/mL, number only, no unit symbol.

Ask | Fill in: MIC90 of CC1(C)S[C@@H]2[C@H](NC(=O)Cc3ccccc3)C(=O)N2[C@H]1C(=O)O is ___
Reply | 4

Ask | Consider the compound shown here: C[C@@H](O)[C@H]1C(=O)N2C(C(=O)O)=C(S[C@@H]3CN[C@H](C(=O)Nc4cccc(C(=O)O)c4)C3)[C@H](C)[C@H]12 What is its recorded MIC90?
Reply | 4

Ask | I have this compound here, Cc1ncc([N+](=O)[O-])n1CCO , and I need its recorded MIC90.
Reply | 16

Ask | Sample CO[C@@]1(NC(=O)CSCC#N)C(=O)N2C(C(=O)O)=C(CSc3nnnn3C)CS[C@@H]21 — what was its MIC90?
Reply | 16

Ask | Consider the compound O=C(N[C@H](CO)[C@H](O)c1ccc([N+](=O)[O-])cc1)C(Cl)Cl and give its measured MIC90.
Reply | 8

Ask | Name the reported MIC90 value associated with the compound CCC[C@@H]1C[C@@H](C(=O)N[C@@H]([C@H]2O[C@H](SC)[C@H](O)[C@@H](O)[C@H]2O)[C@H](C)Cl)N(C)C1
Reply | 8

Ask | Which MIC90 is reported for this compound? C[C@@H](O)[C@H]1C(=O)N2C(C(=O)O)=C(S[C@@H]3CN[C@H](CNS(N)(=O)=O)C3)[C@H](C)[C@H]12
Reply | 2

Ask | Could you tell me which MIC90 is on file for C[C@H]1COc2c(N3CCN(C)CC3)c(F)cc3c(=O)c(C(=O)O)cn1c23.C[C@H]1COc2c(N3CCN(C)CC3)c(F)cc3c(=O)c(C(=O)O)cn1c23.O ?
Reply | 4

Ask | Bench note: what MIC90 did C[C@@H](O)[C@H]1C(=O)N2C(C(=O)O)=C(S[C@@H]3CN[C@H](C(=O)N(C)C)C3)[C@H](C)[C@H]12 show?
Reply | 2

Ask | Consider the compound shown here: C[C@@H](O)[C@H]1C(=O)N2C(C(=O)O)=C(SCCNC=N)C[C@H]12 [IMIPENEM ANHYDROUS] What is its recorded MIC90?
Reply | 8

Ask | Record request: MIC90 value, item CCN1CCN(C(=O)N[C@@H](C(=O)N[C@@H]2C(=O)N3[C@@H]2SC(C)(C)[C@@H]3C(=O)O)c2ccccc2)C(=O)C1=O
Reply | 2

----------
- System: Peptoniphilus asaccharolyticus
- protocol details: Antibacterial activity against beta-lactamase producing Peptoniphilus asaccharolyticus by CLSI agar dilution method
- Type: functional
metric name: MIC90 (µg/mL)
Report only the number, with the unit µg/mL understood.

Ask | Can you look up the measured MIC90 of CCC[C@@H]1C[C@@H](C(=O)N[C@@H]([C@H]2O[C@H](SC)[C@H](O)[C@@H](O)[C@H]2O)[C@H](C)Cl)N(C)C1 for me?
Reply | 4

Ask | Request the reported MIC90 associated with O=C(N[C@H](CO)[C@H](O)c1ccc([N+](=O)[O-])cc1)C(Cl)Cl
Reply | 4

Ask | Which MIC90 is reported for this molecule? C[C@@H](O)[C@H]1C(=O)N2C(C(=O)O)=C(SCCNC=N)C[C@H]12 [IMIPENEM ANHYDROUS]
Reply | 0.5

Ask | Need MIC90 of CC1(C)S[C@@H]2[C@H](NC(=O)Cc3ccccc3)C(=O)N2[C@H]1C(=O)O , thanks.
Reply | 1

----------
- Test system: Parvimonas micra
- protocol details: Antibacterial activity against beta-lactamase producing Micromonas micros by CLSI agar dilution method
- Assay type: functional
metric name: MIC90 (mg/L)
Please give a number only; it is taken to be in mg/L.

Ask | // returns reported MIC90 for input O=C(N[C@H](CO)[C@H](O)c1ccc([N+](=O)[O-])cc1)C(Cl)Cl
Reply | 4

Ask | Can you look up the measured MIC90 of C[C@H]1COc2c(N3CCN(C)CC3)c(F)cc3c(=O)c(C(=O)O)cn1c23.C[C@H]1COc2c(N3CCN(C)CC3)c(F)cc3c(=O)c(C(=O)O)cn1c23.O for me?
Reply | 32

Ask | MIC90 for C[C@@H](O)[C@H]1C(=O)N2C(C(=O)O)=C(SCCNC=N)C[C@H]12 [IMIPENEM ANHYDROUS] ?
Reply | 0.5

Ask | I'd like to know its MIC90. The molecule in question is CC1(C)S[C@@H]2[C@H](NC(=O)Cc3ccccc3)C(=O)N2[C@H]1C(=O)O
Reply | 1

Ask | Fill in: MIC90 of C[C@@H](O)[C@H]1C(=O)N2C(C(=O)O)=C(S[C@@H]3CN[C@H](C(=O)Nc4cccc(C(=O)O)c4)C3)[C@H](C)[C@H]12 is ___
Reply | 1

Ask | What value of MIC90 has been reported for the following molecule? C[C@@H](O)[C@H]1C(=O)N2C(C(=O)O)=C(S[C@@H]3CN[C@H](C(=O)N(C)C)C3)[C@H](C)[C@H]12
Reply | 0.5

Ask | Could you tell me which MIC90 is on file for CO[C@@]1(NC(=O)CSCC#N)C(=O)N2C(C(=O)O)=C(CSc3nnnn3C)CS[C@@H]21 ?
Reply | 8

Ask | Which MIC90 reading was recorded for the molecule CCN1CCN(C(=O)N[C@@H](C(=O)N[C@@H]2C(=O)N3[C@@H]2SC(C)(C)[C@@H]3C(=O)O)c2ccccc2)C(=O)C1=O ?
Reply | 8

Ask | Recorded MIC90 of CCC[C@@H]1C[C@@H](C(=O)N[C@@H]([C@H]2O[C@H](SC)[C@H](O)[C@@H](O)[C@H]2O)[C@H](C)Cl)N(C)C1 , please.
Reply | 4

Ask | Give the measured MIC90 of C[C@@H](O)[C@H]1C(=O)N2C(C(=O)O)=C(S[C@@H]3CN[C@H](CNS(N)(=O)=O)C3)[C@H](C)[C@H]12 .
Reply | 0.5

Ask | Recorded MIC90 for Cc1ncc([N+](=O)[O-])n1CCO , please?
Reply | 16
